Where do these numbers come from? They come from ChEMBL document CHEMBL4130415.

- Test system: Peritoneal macrophage
- procedure_summary: Antiinflammatory activity in ICR mouse primary peritoneal macrophages assessed as inhibition of LPS-induced TNF-alpha production pretreated for 2 hrs followed by LPS challenge measured after 22 hrs by ELISA
- Type: functional, cell-based
readout: IC50 (µM)

smiles_code | measure_unit | IC50
COc1ccccc1/C=C/C(=O)/C=C/c1ccc(O)c(Br)c1 | µM | 3.71

P = COc1cccc(/C=C/C(=O)/C=C/c2ccc(O)c(Br)c2)c1OC
Q = COc1ccccc1/C=C/C(=O)/C=C/c1ccccc1Br
Between these two entries, P and Q , state which has the higher IC50. Response format: the label of the selected entry.
Q
